The reported numbers originate from patent US20190315842A1.

Reported AtheNA signal values for the following binders.
EXPERIMENTAL TARGET: ribonucleoprotein (RNP)
METHOD NOTES: AtheNA Multi-Lyte ANA, Ab at 6.25 ug/ml;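 also: monoclonal antibodies screened for reactivity against a panel of nuclear autoantigens, with an anti-HIV and an anti-RSV monoclonal antibody serving as controls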
A bare number is all that is needed in reply.

{"BINDER": "Ab7961/293i (antibody, IgG1, V domains shown, Recombinant human antibody with IgG1 heavy chain backbone and kappa light chain constant; they begin at LVESGGG and MTQSP; also called mAb 7961; clone 24) VH: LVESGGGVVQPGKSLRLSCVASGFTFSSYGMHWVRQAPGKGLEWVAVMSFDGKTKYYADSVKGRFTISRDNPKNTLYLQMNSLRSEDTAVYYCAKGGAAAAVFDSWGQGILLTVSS VL: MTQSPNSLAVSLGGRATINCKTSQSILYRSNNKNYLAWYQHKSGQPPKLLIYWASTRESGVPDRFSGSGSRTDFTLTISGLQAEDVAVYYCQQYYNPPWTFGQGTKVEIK", "AtheNA signal": 7}
{"BINDER": "Ab7957/293i (antibody, IgG1, V domains shown, Recombinant human antibody with IgG1 heavy chain backbone and kappa light chain constant; they begin at LVESGGG and MTQSP; also called Ab7957i; mAb 7957) VH: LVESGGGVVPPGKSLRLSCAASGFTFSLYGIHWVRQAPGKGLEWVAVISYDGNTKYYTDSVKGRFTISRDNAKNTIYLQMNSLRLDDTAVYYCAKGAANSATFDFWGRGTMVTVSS VL: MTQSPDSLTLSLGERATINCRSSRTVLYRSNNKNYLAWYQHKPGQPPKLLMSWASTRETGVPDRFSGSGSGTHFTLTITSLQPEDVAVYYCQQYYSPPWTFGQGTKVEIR", "AtheNA signal": 3}
{"BINDER": "Ab7955 (antibody, V domains shown, Recombinant human antibody with IgG1 heavy chain backbone and kappa light chain constant; also called mAb 7955; clone 19) VH: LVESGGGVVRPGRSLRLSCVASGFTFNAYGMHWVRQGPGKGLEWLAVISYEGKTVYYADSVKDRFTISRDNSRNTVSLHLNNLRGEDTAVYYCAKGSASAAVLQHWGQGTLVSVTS VL: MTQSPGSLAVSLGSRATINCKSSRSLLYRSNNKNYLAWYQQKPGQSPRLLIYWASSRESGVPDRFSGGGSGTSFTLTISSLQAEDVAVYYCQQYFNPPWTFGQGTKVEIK", "AtheNA signal": 4}
{"BINDER": "Ab7968 (antibody, IgG1, V domains shown, Recombinant human antibody with IgG1 heavy chain backbone and kappa light chain constant; they begin at LVESGGG and MTQSP; also called mAb 7968; mAb7968) VH: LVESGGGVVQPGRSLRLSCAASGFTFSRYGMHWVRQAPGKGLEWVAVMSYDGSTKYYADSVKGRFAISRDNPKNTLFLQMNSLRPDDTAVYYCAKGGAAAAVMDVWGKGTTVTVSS VL: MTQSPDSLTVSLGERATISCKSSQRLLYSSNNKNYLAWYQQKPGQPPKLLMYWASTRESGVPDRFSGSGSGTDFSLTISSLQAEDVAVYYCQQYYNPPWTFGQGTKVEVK", "AtheNA signal": 7}
{"BINDER": "Ab7960/293i (antibody, IgG1, V domains shown, Recombinant human antibody with IgG1 heavy chain backbone and kappa light chain constant; they begin at LVESGGG and MTQSP; also called mAb 7960; mAb7960) VH: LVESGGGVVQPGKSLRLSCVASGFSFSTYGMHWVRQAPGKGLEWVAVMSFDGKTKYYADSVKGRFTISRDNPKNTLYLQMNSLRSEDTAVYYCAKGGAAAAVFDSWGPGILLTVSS VL: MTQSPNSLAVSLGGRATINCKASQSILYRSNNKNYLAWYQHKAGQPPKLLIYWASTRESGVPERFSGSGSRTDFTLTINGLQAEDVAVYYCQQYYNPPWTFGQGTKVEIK", "AtheNA signal": 2}

Proceeding to the next binder to report its AtheNA signal.
I'd like to know its AtheNA signal. The binder in question is Ab7962/293i (antibody, V domains shown, Recombinant human antibody with IgG1 heavy chain backbone and kappa light chain constant (IgM in the donor B cell); they begin at LVESGGG and MTQSL; also called clone 27; pH007962/pK005996) VH: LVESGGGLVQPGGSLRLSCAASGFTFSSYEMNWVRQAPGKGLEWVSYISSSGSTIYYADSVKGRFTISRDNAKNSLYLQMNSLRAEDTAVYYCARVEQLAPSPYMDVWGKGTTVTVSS VL: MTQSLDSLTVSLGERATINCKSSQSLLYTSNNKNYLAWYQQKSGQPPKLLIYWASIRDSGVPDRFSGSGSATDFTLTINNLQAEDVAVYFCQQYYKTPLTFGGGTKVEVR 2
